B1: KCNAB2 (parent)
chain: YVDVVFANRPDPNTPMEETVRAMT

Variants of: B1
Assay Notes: protein stability index of a GFP-peptide fusion (GPS, HEK-293T) (PSI 1-6); higher = more stable;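 note: lentivirally expressed fusions sorted by FACS into six bins by GFP to DsRed ratio, PSI derived from sequencing read proportions per bin multiplied by bin number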
Condition Parameters: c terminus: a fixed tail appended
Measurement Kind: protein stability index

INSERT INTO results (mutant, value_reported) VALUES
  ('V5Y', 2.03),
  ('T19N', 2),
  ('E18H', 2.97),
  ('A7F', 3.08),
  ('R9C', 1.6),
  ('T19D', 2.07),
  ('Y1L', 3.4),
  ('M16G', 1.95),
  ('R9T', 1.7),
  ('D11Q', 2.5),
  ('Y1K', 3.77),
  ('N13K', 2.18),
  ('V5H', 2.09),
  ('P12V', 2.72),
  ('R21C', 1.5),
  ('P12T', 1.56),
  ('T24Y', 2.46),
  ('E17K', 2.62),
  ('E18R', 2.1),
  ('A7L', 1.98),
  ('V4T', 2.12),
  ('P10Q', 1.73),
  ('E17M', 2.65),
  ('M23Q', 1.41),
  ('M16H', 1.93),
  ('R9K', 1.69),
  ('V20K', 1.59),
  ('R21K', 2.35),
  ('V20Y', 1.8),
  ('T14P', 2.51),
  ('N8S', 2.33),
  ('N13H', 2.15),
  ('T19E', 1.71),
  ('V5P', 2.01),
  ('F6H', 2.42),
  ('D3R', 2.28),
  ('M16I', 1.64),
  ('A22V', 2.29),
  ('T19P', 1.61),
  ('R9L', 2.27),
  ('A22G', 1.74),
  ('P10V', 1.82),
  ('T19H', 2.1),
  ('V5M', 3.01),
  ('V5L', 2.2),
  ('F6D', 4.17),
  ('P15L', 2.44),
  ('M23V', 1.78),
  ('A7P', 2.14),
  ('M16L', 1.86),
  ('R21A', 1.84),
  ('R9M', 2.67),
  ('Y1P', 4.42),
  ('T14W', 1.54),
  ('V4D', 2.26),
  ('P10S', 1.38),
  ('E18L', 2.56),
  ('P15F', 2.47),
  ('Y1N', 4.65),
  ('A7G', 2.2),
  ('N8L', 2.61),
  ('T14M', 2.65),
  ('E18G', 1.75),
  ('N13A', 2),
  ('E18A', 2.67),
  ('T24P', 2.24),
  ('P12H', 1.37),
  ('V4H', 1.39),
  ('A7I', 1.88),
  ('M23K', 1.82),
  ('D11T', 2.76),
  ('F6Q', 3.1),
  ('V2H', 2.39),
  ('R9A', 1.78),
  ('F6C', 2.18),
  ('V5Q', 1.65),
  ('A22W', 2.49),
  ('R9W', 2.72),
  ('Y1R', 3.55),
  ('D11G', 2.19),
  ('M16C', 1.82),
  ('P15Y', 2.21),
  ('A7W', 2.45),
  ('V20Q', 1.82),
  ('E17R', 2.29),
  ('Y1G', 4.12),
  ('F6W', 3.77),
  ('Y1C', 2.52),
  ('R21H', 2.22),
  ('N13D', 2.29),
  ('D3P', 1.2);
